Assay: Half life in mouse liver microsomes at 20 uM at pH 7.4 incubated for 15 mins by UPLC/MS analysis in presence of NADPH
Format: ADME
ENDPOINT: half-life at 20 µM (min)
Express it in min; write the number only.

Which half-life at 20 µM value belongs to Cn1cc(S(=O)(=O)N(CC2CC2)C2CCN(CCOc3ccccc3-c3ccccc3)CC2)cn1 ? 62

Which measured half-life at 20 µM value corresponds to CN(C1CCN(CCOc2ccccc2C(C)(C)C)CC1)S(=O)(=O)c1cnn(C)c1 ? 20

Would you kindly share the measured half-life at 20 µM for CN(C1CCN(CCOc2ccccc2-c2ccccc2)CC1)S(=O)(=O)c1cnn(C)c1 ? 26.2

# query: half-life at 20 µM of entry Cn1cc(S(=O)(=O)N(CC2CC2)C2CCN(CCOc3ccccc3C(C)(C)C)CC2)cn1 44.5
